STUDY TARGET: recombinant HA, subtype H3 (A/Wyoming/3/2003(H3N2)) (influenza A virus A/Wyoming/3/2003 …)
TEST DESCRIPTION: ELISA, coated HA, IgG 5 µg/ml
Exercise: state measured OD 492 nm for each of the binders provided.
Give bare numbers, in OD 492 nm.

INSERT INTO measurements (binder, value_measured) VALUES
  ('CR6272 (antibody, V domains shown) VH: QMQLVQSGAEVKKPGSSVKVSCKASGGTFSSYAITWVRQAPGQGLEWMGGIIGMFGSTNYAQNFQGRVTITADESTSTAYMELSSLRSEDTAVYYCARSTGYYPAYLHHWGQGTLVTVSS VL: QSALTQPRSVSGSPGQSVTISCTGTSSDVGGYNYVSWYQQHPGKAPKLMIYDVSKRPSGVPDRFSGSKSGNTASLTISGLQAEDEADYYCSSYTSSSTHVFGTGTKVTVLG', 0.07),
  ('CR6260 (antibody, V domains shown) VH: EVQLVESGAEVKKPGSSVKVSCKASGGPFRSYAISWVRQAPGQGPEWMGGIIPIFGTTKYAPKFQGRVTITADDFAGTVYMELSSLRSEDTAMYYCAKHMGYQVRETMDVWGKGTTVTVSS VL: SYVLTQPPSVSGTPGQRVTISCSGSRSNVGDNSVYWYQHVPEMAPKLLVYKNTQRPSGVPARFSGSKSGTSASLAIIGLQSGDEADYYCVAWDDSVDGYVFGSGTKVTVLG', 0.08),
  ('CR6343 (antibody, V domains shown) VH: QVQLVQSGAEVKKPGSSVKVSCKASGVTFSYYAMSWVRQAPGQGLEWMGGISPMFGTTTYAQKFQGRVTITADDSTSTAYMEVRSLRSEDTAVYYCARSSNYYDSVYDYWGQGTLVTVSS VL: QSVVTQPPSESVAPGQTARITCGGHNIGSNSVHWYQQKPGQAPVLVVYDNSDRPSGIPERFSGSNSGNTATLTISRVEAGDEADYYCQVWGSSSDHYVFGTGTKVTVLG', 0.07),
  ('CR6310 (antibody, V domains shown) VH: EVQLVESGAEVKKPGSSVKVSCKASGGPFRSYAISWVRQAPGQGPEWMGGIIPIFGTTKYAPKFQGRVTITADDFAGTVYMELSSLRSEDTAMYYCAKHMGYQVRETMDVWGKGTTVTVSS VL: SYVLTQPPSVSVAPGQTARITCGGNNIGSKSVHWYQQKPGQAPVLVVYDDSDRPSGIPERFSGSNSGNTATLTISRVEAGDEADYYCQVWDSSSDHAVFGGGTQLTVLG', 0.08);

# query: OD 492 nm of entry CR6339 (antibody, V domains shown) VH: EVQLVESGAEVKKPGSSVKVSCKASGGIFNSYAISWVRQAPGQGLEWMGGIIAIFHTPKYAQKFQGRVTITADESTNTAYMELRSLKSEDTALYYCARGSTYDFSSGLDYWGQGTLVTVSS VL: QAGLTQPPSVSVAPGQTARITCGGNNIGSKSVHWYQQKPGQAPVLVVYDDSDRPSGIPERFSGSNSGNTATLTISRVEAGDEADYYCQVWDSSSDHVVFGGGTKLTVLG
0.07
